Field: Population Hoechst High Intensity Objects (%). Provide a value for each of the molecules that follow.
Tested on: HEK-293T
test.details: Multiplex assay against HEK293T
Type: toxicity, cell-based
conditions: human, 24 h, 1 µM, compound concentration 1 uM, replicate 2
Answers are plain numbers, in %.

The following molecules have reported results that may help.
* COc1ccc2c(c1OCc1ccccc1)C[C@@H](C(=O)O)N(C(=O)C(c1ccccc1)c1ccccc1)C2 [OLODANRIGAN] | 6
* Cl.Cl.OCCOCCN1CCN(C(c2ccccc2)c2ccc(Cl)cc2)CC1 (stereo not given) [HYDROXYZINE HYDROCHLORIDE] | 13
* CCc1nn2c(C)cc(C)nc2c1Cc1ccc(-c2nnc(C3CCNCC3)o2)cc1 | 5
* C=CCN1C[C@H](C(=O)N(CCCN(C)C)C(=O)NCC)C[C@@H]2c3cccc4[nH]cc(c34)C[C@H]21 [CABERGOLINE] | 6

# input for lookup
According to the records, this molecule `S=C(NCCCc1c[nH]cn1)NCCCN(Cc1ccc(Cl)c(Cl)c1)c1ccc(Br)cn1` displays Population Hoechst High Intensity Objects (%) of 13
